# Assay info: NCI Yeast Anticancer Drug Screen. Data for the cln2 rad14 strain (AID 165);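 note: 0% = growth equal to vehicle treated cultures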
# Run parameters: S. cerevisiae cln2 rad14 strain, at 5.0 µM (retest, dose inferred, filed as 0.5)
The panel holds about 79,000 compounds, 15% with a hit somewhere; the sample as a whole holds those more often. Activity calls are given as the source filed them. Cut-off read from the data, not from the text of the source: active = growth inhibition above about 70%; inactive = the rest.
I would appreciate it if you answered using one of these outcomes: active, inactive

Solved entries:
Molecule: CCCCCCCN1C(=O)c2ccccc2S1(=O)=O
Assigned class: inactive

Molecule: O=C(Nc1ccccc1-c1nn(CN2CCNCC2)c(=S)n(CN2CCNCC2)c1=O)C(F)(F)F
Assigned class: inactive

Molecule: C[C@@H]1CC=C[C@@H](NC(=O)OCc2ccccc2)[C@H]1C=O
Assigned class: inactive

Molecule: O=[N+]([O-])c1c(I)ccc2ccccc12
Assigned class: inactive

Molecule: O=C(O)c1ccc([N+](=O)[O-])cc1.[Ag]
Assigned class: active

Now look at this entry.
Prompt: Please let me know the test result on file for CC1OC(OC2C(Oc3c(-c4ccc(O)c(O)c4O)oc4cc(O)ccc4c3=O)OC(CO)C(O)C2O)C(O)C(O)C1O (centres undefined) .
Completion: inactive

---

# Assay info: NCI Yeast Anticancer Drug Screen. Data for the rad50 strain (AID 155);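 note: 0% = growth of vehicle-only cultures of the same strain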
# Run parameters: S. cerevisiae rad50 strain growth inhibition; at 50.0 µM; active compounds read high
The panel holds about 79,000 compounds, 15% with a hit somewhere; the sample as a whole holds those more often. Activity calls are given as the source filed them. Cut-off read from the data, not from the text of the source: active = growth inhibition above about 70%; inactive = the rest.
Overview of recorded growth inhibition for various molecules

Recorded growth inhibition, per entry:
Input smiles: CN(C)c1ccc(N=Nc2ccc(/C=C3\CCOC3=O)cc2)cc1
growth inhibition: -3.65% (inactive)

Input smiles: O=Cc1ccc2ccc3ccccc3c2c1
growth inhibition: 85.9% (active)

Input smiles: NC(=O)c1cccn1Cc1ccccc1SSc1ccccc1Cn1cccc1C(N)=O
growth inhibition: 89.5% (active)

Input smiles: CC/C(=N\NC(=S)SC)c1ccccn1
growth inhibition: -13.7% (inactive)

Input smiles: CC(=O)Oc1ccc(N=[N+]([O-])c2ccc(OC(C)=O)cc2)cc1
growth inhibition: 1.95% (inactive)

Next up:
Prompt: I have this molecule here, `CC(C)NCC=C=Nc1ccccc1` , and I need its recorded growth inhibition.
Completion: 45.8% (inactive)

---

# Assay info: NCI Yeast Anticancer Drug Screen. Data for the mlh1 rad18 strain (AID 175)
# Run parameters: S. cerevisiae mlh1 rad18 strain growth inhibition; at 5.0 µM (retest, dose inferred, filed as 0.5)
This is part of a sample that, as a whole, favours compounds with a hit. Of some 79,000 tested, about 15% had one in any assay. Active and inactive are the calls of the source. Cut-off read from the data, not from the text of the source: active = growth inhibition above about 70%; inactive = the rest.
Hi! Could you answer with just one of these? active, inactive

# count of solved cases: 4
Molecule: CC(C)SC(=S)S(=O)(=O)c1ccc(Cl)cc1
Assigned class: inactive

Molecule: COc1ccc(C23OCCN2C(=O)c2ccccc23)cc1 (centres undefined)
Assigned class: inactive

Molecule: C(=P(c1ccccc1)(c1ccccc1)c1ccccc1)[P+](c1ccccc1)(c1ccccc1)c1ccccc1.[Br][Cu][Br]
Assigned class: active

Molecule: CCCCOc1ccc(NC(=S)Nc2ccc(OCCN(CC)CC)cc2)cc1
Assigned class: inactive

Prompt: Per the assay record, what outcome was assigned to `S=C(Nc1ccc(N=Nc2ccccc2)cc1)SCc1ccccc1` ?
Completion: inactive

Prompt: What outcome does the record of this test show for `CSC(=S)/C(=C/Nc1ncccn1)c1ccccc1` ?
Completion: inactive

Prompt: Any idea what this test logged for `O=C(C[n+]1ccc2ccccc2c1)c1ccc2ccc3ccccc3c2c1` ?
Completion: inactive

Prompt: Would you mind telling me which call this test gave `O=C1CCCC/C1=C/c1ccc(Cl)cc1` ?
Completion: inactive

Prompt: Can you look up the reported call for `Nc1c(-c2ccc(Cl)cc2)[n+]([O-])c2ccccc2[n+]1[O-]` for me?
Completion: inactive

Prompt: Given `COc1ccccc1/C=C(\NC(=O)c1ccccc1)c1nc2ccccc2[nH]1` , state the outcome it received in this test.
Completion: inactive

Prompt: Hi, sorry to bother you, what did the test record for CN1C(OCc2ccccc2)c2c(ccc3c2OCO3)C2C=Cc3cc4c(cc3C21)OCO4 (centres undefined) ?
Completion: active

Prompt: Which outcome did this test record for the molecule `Oc1ccc(C23CC4CC(CC(C4)C2)C3)cc1` ?
Completion: inactive

Prompt: Give the logged outcome of this assay for the following molecule: CNCC(OB(c1ccccc1)c1ccccc1)c1ccccc1 (centres undefined)
Completion: inactive

Prompt: Check the results log: what was the call for CN(C)c1nc(Cl)nc2c1ncn2C1OCC(O)C(O)C1O (centres undefined) ?
Completion: inactive

Prompt: Which outcome did this test record for the molecule `NC(=S)C(=Nc1ccccc1F)Nc1ccccc1F` ?
Completion: inactive

Prompt: # outcome recorded in this test, key = OC1(c2ccccc2)CN(CCl)CC(c2ccccc2)O1 (centres undefined)
Completion: inactive

---

# Assay info: NCI Yeast Anticancer Drug Screen. Data for the sgs1 mgt1 strain (AID 161);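 note: 0% = growth of cultures given vehicle only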
# Run parameters: S. cerevisiae sgs1 mgt1 strain, at 50.0 µM (retest, dose inferred, filed as 5.0)
The panel holds about 79,000 compounds, 15% with a hit somewhere; the sample as a whole holds those more often. Calls of active or inactive are those of the source. No stated cut-off is given here; in the data, active means growth inhibition above about 70%; inactive means the rest.
Give your call using only these classes: active, inactive

Example results:
Compound: Nc1ncnc2nc(-c3ccc(C[P+](c4ccccc4)(c4ccccc4)c4ccccc4)cc3)[nH]c12
Assigned class: active

Compound: O=[N+]([O-])c1cc(C(F)(F)F)cc([N+](=O)[O-])c1N1CCCC(n2cccc2)C1 (stereo not given)
Assigned class: inactive

Compound: O=C(O)c1cccc(S(=O)(=O)NN2C(=O)CSC2c2c(O)ccc3ccccc23)c1 (stereo not given)
Assigned class: active

Prompt: Field: outcome | Entry: `O=C1C(=O)N(c2ccc(Cl)c(Cl)c2)C(=O)C(=O)C1c1nc2ccccc2o1`
Completion: active

Prompt: Per the assay record, what outcome was assigned to `CC(=N/NC(=S)NCC(C)C)/C(C)=N\Nc1ccc(Cl)cc1` ?
Completion: active

---

In this section we review reported growth inhibition values for a set of molecules.
# Assay info: NCI Yeast Anticancer Drug Screen. Data for the cln2 rad14 strain (AID 165);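 note: 0% = growth equal to vehicle treated cultures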
# Run parameters: S. cerevisiae cln2 rad14 strain, at 50.0 µM (retest, dose inferred, filed as 5.0), active compounds read high
The panel holds about 79,000 compounds, 15% with a hit somewhere; the sample as a whole holds those more often.
Value expressed in %; do not type the unit.

Solved cases (4 shown):
Molecule: COC(=O)c1ccccc1CC(Cc1ccc2c(c1)CCC2)C(=O)OC (stereo not given)
Unit string: %
Reported result: -2

Molecule: CCc1nc(N)nc(N)c1-c1ccc(NCCc2ccccc2)c([N+](=O)[O-])c1
Unit string: %
Reported result: 6

Molecule: NC1CCCCC1N.O=C([O-])c1ccc(N=Nc2cccc([N+](=O)[O-])c2)cc1O.O=C([O-])c1ccc(N=Nc2cccc([N+](=O)[O-])c2)cc1O.[Pt+4]
Unit string: %
Reported result: 20

Molecule: N#C/C(=C/c1cc(I)cc(I)c1O)C(N)=O
Unit string: %
Reported result: 90

Prompt: Quick check: growth inhibition of `COc1cccc(=O)cc1` ?
Completion: 32

---

# Assay info: NCI Yeast Anticancer Drug Screen. Data for the cln2 rad14 strain (AID 165);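 note: 0% = growth equal to vehicle treated cultures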
# Run parameters: S. cerevisiae cln2 rad14 strain, at 50.0 µM (retest, dose inferred, filed as 5.0), active compounds read high
About 79,000 compounds went through this panel and 15% of them were active in at least one assay; those are over-represented in the sample as a whole.
Recorded endpoint: growth inhibition (%)
Note: unit % is implicit; provide only the numeric part.

Molecule: O=C(Nc1ccc(C(F)(F)F)cc1[N+](=O)[O-])C(=O)C(C(=O)c1ccc2ccccc2c1)C1OC(=O)c2ccccc21 (stereo unspecified)
growth inhibition / %: 15
//
Molecule: c1ccc(CCC2=Nc3ccccc3CO2)cc1
growth inhibition / %: -87
//
Molecule: O=C(Sc1c(-c2ccccc2)c(=O)n(-c2ccccc2)c(=S)n1-c1ccccc1)c1cccs1
growth inhibition / %: 92
//
Molecule: O=C1/C(=C/c2cccc(Br)c2)CCc2ccccc21
growth inhibition / %: 16
//
Molecule: CN(C)Cc1ccc2c(c1)c1c(n2Cc2ccccc2)CCCC1
growth inhibition / %: 96
//
Molecule: CC(CN1CCCCCCC1)C(c1ccccc1)c1ccccc1 (stereo unspecified)
growth inhibition / %: 73

Prompt: Look at this molecule and give its reported growth inhibition. `CCNC(=S)N/N=C(/C)c1cccc(/C(C)=N\NC(=S)NCC)n1`
Completion: 6

Prompt: Give its growth inhibition value. Item: `Cc1[nH]c2ccccc2c1SCc1ccccc1`
Completion: 99

Prompt: Dear colleague, I am looking for the recorded growth inhibition of the following molecule: `CCOc1c(N=Nc2ccccc2OC)c(-c2ccccc2)nn1C(N)=S`
Completion: 20

Prompt: Param item = C=C(C)C1CC2=C(O1)C(=O)c1ccccc1C2=O (stereo unspecified) ; retrieve measured growth inhibition.
Completion: 37

Prompt: Data request, read-out growth inhibition, for `Cc1cccc2c1C(=O)N(CC[P+](c1ccccc1)(c1ccccc1)c1ccccc1)C2=O`
Completion: 91

Just for reference, PubChem BioAssay (NCI) is where these values come from.
